# Test system: SNB-75 CNS
# Assay summary: NCI tumour cell line growth inhibition, 48 h
Property label: TGI

Compound	TGI
COc1ccc(N2C(=O)C3c4[nH]c5ccccc5c4C4CC(C)CC(C)C4C3C2=O)cc1 (stereo not drawn)	> 100 µM
NC(CCC(=O)NC(CSC(=O)N(O)c1ccccc1)C(=O)NCC(=O)O)C(=O)O (stereo not drawn)	> 1000 µM

Now turn to the next compound.
Sample COc1cccc(-c2nc3ccccc3c(=O)[nH]2)c1OC ; TGI observed: > 100 µM

###

# Tested on: CAKI-1 renal
# Assay summary: NCI tumour cell line growth inhibition, 48 h
For each record, write down the corresponding GI50.

// input: 4 molecules below; output: GI50 for each
1. O=S(=O)(c1cccc2c(Cl)cccc12)N1CCCNCC1
2. Cc1cc(NCc2cc(Nc3ccnc4cc(Cl)ccc34)ccc2F)nc(N2CCN(C)CC2)n1
3. O=c1[nH]c(=O)c2cc(C3CC(O)C(CO)O3)ccc2[nH]1 (centres undefined)
4. CNC(=O)CC1NC(=O)c2csc(n2)-c2ccc(-c3nc(C4=NC(C(=O)N5CCCC5C(N)=O)CO4)cs3)nc2-c2csc(n2)-c2csc(n2)C(C(C)C)NC(=O)CNC(=O)c2csc(n2)C(C(C)C)NC(=O)c2nc1sc2C (centres undefined)

(A)
17.3 µM
1.67 µM
> 100 µM
> 25 µM

###

For each record, write down the corresponding TGI.
# Test system: OVCAR-4 ovarian
# Assay summary: NCI tumour cell line growth inhibition, 48 h

Completed entries (count: 5):
Compound	TGI
COc1ccc(NC(=O)COCCOCCNC[C@@H]2C(=O)O[C@H]3[C@H]2CC/C(COC(=O)OC/C2=C/CC[C@@]4(C)O[C@H]4[C@H]4OC(=O)[C@@H](CN(C)C)[C@@H]4CC2)=C\CC[C@@]2(C)O[C@@H]32)c(O)c1C(N)=O	10.2 µM
Cc1ccc2c(c1)C(C)Cc1c(Cl)ncnc1N2C (stereo unspecified)	> 100 µM
Cc1ccc2c(c1)CC1(Cc3c(C)cccc3C1=O)C2=O (stereo unspecified)	> 100 µM
COc1ccc(C2=NN(C(N)=S)C(c3ccccc3)C2)cc1 (stereo unspecified)	> 100 µM
CCN1Cc2c(ccc(F)c2C#N)O[C@@H](C)CNC(=O)c2c(N)nn3ccc1nc23	> 100 µM

Sample O=P1(c2ccccc2)C(c2ccccc2)=CC=C1c1ccccc1 ; TGI observed: > 100 µM

###

# System: MALME-3M melanoma
# Assay summary: NCI tumour cell line growth inhibition, 48 h
Property label: TGI

Compound	TGI
C[N+]1(Cc2ccc(Cl)c(Cl)c2)CCCC1C1CCCN(Cc2ccc(Cl)c(Cl)c2)C1 (centres undefined)	> 100 µM

// input: 3 compounds below; output: TGI for each
1. Cc1ccc(N2CCC3(CC2)OCCO3)cc1
2. C[C@]12C[C@@H](c3ccccc3)Nc3ccccc3N1C(c1ccccc1)=NO2
3. CCN1C(=O)N(c2ccccc2)C2NC(=S)N(/N=C/C=C/c3ccccc3)C21 (centres undefined)

(A)
1. > 100 µM
2. > 100 µM
3. > 100 µM

###

# Test system: CCRF-CEM leukemia
# Assay summary: NCI tumour cell line growth inhibition, 48 h
Property label: TGI

Completed entries (count: 6):
Compound	TGI
O=C(O)CNS(=O)(=O)c1ccc(NC(=O)CI)cc1	5.85 µM
COc1cc(C(O)C(=O)c2nc3ccc([N+](=O)[O-])cc3[nH]c2=O)ccc1O (stereo not given)	> 100 µM
CNCCNc1c2c(c(NCCNC)c3[nH]ccc13)C(=O)c1ccccc1C2=O	0.203 µM
COc1ccc(CC(=O)NCCc2ccc(OC)c(OC)c2)cc1Br	> 100 µM
OC(c1cc(-c2ccc(Cl)cc2)nc2ccccc12)C1CCCCN1 (stereo not given)	2.52 µM
CC[C@@]1(OC(=O)CN)C(=O)OCc2c1cc1n(c2=O)Cc2cc3c(N)cccc3nc2-1	> 100 µM

// input: 6 compounds below; output: TGI for each
1. O=C1C=CC2(O)OCCN(CCO)C2=C1 (stereo not given) (tested in a mixture with another compound)
2. CCOC(=O)[C@@H]1CCN2CN(c3ccc(OC)cc3)N=C(c3ccccc3)[C@@]12c1ccccc1
3. O=C(NC1C=Nc2ccc([N+](=O)[O-])cc2NC1=O)c1cc(Cl)cc([N+](=O)[O-])c1 (stereo not given)
4. CCCCCCCCCCCCOC1C(C(COC2OC(C3COC(C)(C)O3)C3OC(C)(C)OC23)NC(=O)NS(=O)(=O)c2ccccc2)OC2OC(C)(C)OC21 (stereo not given)
5. Cc1ccc(C2=C(C#N)C(=O)N3CCN=C3S2)cc1
6. O=C(O)CCC(NC(=O)c1ccccc1)C(=O)O (stereo not given)

(A)
1. > 100 µM
2. > 100 µM
3. > 100 µM
4. 7.49 µM
5. > 100 µM
6. > 100 µM

###

For each record, write down the corresponding TGI.
# Test system: MOLT-4 leukemia
# Assay summary: NCI tumour cell line growth inhibition, 48 h
Where a SMILES comes first, the peptide text is derived from it. The star is where a group is joined. Ethyl(2-NMe3+) = C[N+](C)(C)CC*; Boc = CC(C)(C)OC(=O)*

Completed entries (count: 2):
Compound	Reported value
O=C1CCCC1C(O)(C(F)(F)F)C(F)(F)F (stereo not drawn)	> 100 µM
C=C1C(=O)O[C@H]2[C@H]1CCC(/C=N/c1ncc(Br)cc1N)=C\CC[C@@]1(C)O[C@@H]21	9.33 µM

Item CC(NC(=O)C(Cc1ccc(OCC[N+](C)(C)C)cc1)NC(=O)OC(C)(C)C)C(=O)NC(Cc1ccccc1)C(=O)NCC(N)=O (stereo not drawn) (Boc-Y(Ethyl(2-NMe3+))AFG-NH2; configuration not given here) was tested on MOLT-4 leukemia; the reported TGI is > 100 µM

###

# System: UACC-257 melanoma
# Assay summary: NCI tumour cell line growth inhibition, 48 h
Property label: log10(TGI) (log10 of the value in µM)
// stored as log10 of TGI expressed in µM

Completed entries (count: 3):
Compound	log10(TGI)
COC(=O)C(Cc1ccc(Oc2cc(CC(NC(=O)c3ccccc3)C(=O)OC)ccc2OC)cc1)NC(=O)c1ccccc1 (stereo not drawn)	1.38
Cc1sc2nc(-c3ccc([N+](=O)[O-])cc3)c(/C=N/N=C(N)N)n2c1C	0.44
CCOC(=O)/C(=C\c1ccc(C#N)cc1)C(C)=O	1.64

// input: 2 compounds below; output: log10(TGI) for each
1. Nc1nc(N)c2c(n1)NC(c1ccc(F)cc1)C1CCc3ccccc3C1=N2 (stereo not drawn)
2. CCOc1cc2c(cc1O)CC[C@@H]1[C@@H]2CC[C@]2(C)C(N)CC[C@@H]12 (stereo partly drawn)

(A)
1.25
1.21

###

For each record, write down the corresponding GI50.
# Tested on: IGROV1 ovarian
# Assay summary: NCI tumour cell line growth inhibition, 48 h

Completed entries (count: 3):
Compound	GI50
Oc1ccccc1CNCC12CC3CC(CC(C3)C1)C2	41.8 µM
Cc1cc2[nH]c(=O)c3c4ccccc4cn3c2cc1C	12.3 µM
CCCCCCCCCCCCOC1C(C(COC2OC(C3COC(C)(C)O3)C3OC(C)(C)OC23)NC(=O)NS(=O)(=O)c2ccccc2)OC2OC(C)(C)OC21 (centres undefined)	2.53 µM

Now turn to the next compound.
Item OC(CNCC1CCCO1)Cn1c2ccc(Cl)cc2c2cc(Cl)ccc21 (centres undefined) was tested on IGROV1 ovarian; the reported GI50 is 2.05 µM

###

# Tested on: HS 578T breast
# Assay summary: NCI tumour cell line growth inhibition, 48 h
Property label: TGI

// input: 5 molecules below; output: TGI for each
1. CN(N)/N=N/c1nc[nH]c1[N+](=O)[O-]
2. COc1cc(Cl)cc(-c2nn(-c3cccc(NC(=O)Nc4cc(C(F)(F)F)cc(C(F)(F)F)c4)c3)cc2-c2ccncc2)c1
3. Cc1sc2nc(-c3ccc([N+](=O)[O-])cc3)c(/C=N/N=C(N)N)n2c1C
4. COc1ccc(N2C(=O)C(C)SC2c2cc3cc(Br)ccc3nc2Cl)cc1 (configuration not stated)
5. O=C(c1ccccc1)N1OCCC1Nc1ccc(Br)cc1 (configuration not stated)

(A)
["> 100 µM", "13.6 µM", "3.49 µM", "> 100 µM", "> 10 µM"]

// input: 8 molecules below; output: TGI for each
1. COc1ccc(NC(=O)COCCOCCNC[C@@H]2C(=O)O[C@H]3[C@H]2CC/C(COC(=O)OC/C2=C/CC[C@@]4(C)O[C@H]4[C@H]4OC(=O)[C@@H](CN(C)C)[C@@H]4CC2)=C\CC[C@@]2(C)O[C@@H]32)c(O)c1C(N)=O
2. c1ccc2c(c1)cc1c3[nH]c4ccccc4c3ccn21
3. O=C(Nc1ccccc1)n1[nH]c(=O)n(-c2ccccc2)c1=O
4. COc1cc(/C=C/C(=O)c2c(C)nc3ccccc3c2/C=C/c2ccc(C)cc2)cc(OC)c1OC
5. CC[C@@]1(OC(=O)CN)C(=O)OCc2c1cc1n(c2=O)Cc2cc3c(N)cccc3nc2-1
6. Clc1ccc2nnnn2n1
7. CN(C)CCCN1c2ccccc2C(C)(C)c2ccccc21
8. CCN1C(=O)N(c2ccccc2)C2NC(=S)N(/N=C/C=C/c3ccccc3)C21 (configuration not stated)

(A)
1: > 50 µM; 2: > 10 µM; 3: > 100 µM; 4: > 100 µM; 5: > 100 µM; 6: > 100 µM; 7: 43.3 µM; 8: > 100 µM

// input: 4 molecules below; output: TGI for each
1. COc1ccc(S(=O)(=O)Nc2cc(/C=C\c3cc(OC)c(OC)c(OC)c3)ccc2OC)cc1
2. Oc1ccccc1C=Nc1nc(SCc2ccccc2)nc2[nH]ncc12
3. COC(=O)[C@@H](NC(=O)N(CCC#N)CCCN(C(=O)N[C@H](Cc1ccccc1)C(=O)OC)c1ccccc1)C(C)C
4. COc1cc([C@H]2CC(=O)C[C@H](c3cc(OC)c(OC)c(OC)c3)C23C(=O)c2ccccc2C3=O)cc(OC)c1OC

(A)
["> 100 µM", "44.7 µM", "> 100 µM", "> 100 µM"]
